system under test: T1, Human OX40 (Sino Biological Inc) (human, UniProt P43489 29-216, limits assumed)
T1 construct: Bought soluble protein used as SPR analyte; also called huOX40
T1 sequence: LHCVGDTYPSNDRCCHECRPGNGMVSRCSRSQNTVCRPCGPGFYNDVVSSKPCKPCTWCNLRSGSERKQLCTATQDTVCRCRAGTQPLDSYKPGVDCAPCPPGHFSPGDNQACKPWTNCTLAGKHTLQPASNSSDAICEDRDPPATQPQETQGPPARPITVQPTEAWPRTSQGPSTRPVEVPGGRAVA
test protocol: SPR (Biacore), antibody captured via anti-human Fc, huOX40 analyte
# koff per entry
metric: koff (s⁻¹)

* 3C8.gr.10 (antibody, V domains shown, human Fc) VH: EVQLVQSGAEVKKPGASVKVSCKASGYAFTNYLIEWVRQAPGQGLEWIGVINPGSGDTYYSEKFKGRVTLTRDTSTSTAYLELSSLRSEDTAVYYCARDRLDYWGQGTLVTVSS VL: DIQMTQSPSSLSASVGDRVTITCHASQDISSYIVWYQQKPGKAFKLLIYHGTNLEDGVPSRFSGSGSGTDFTLTISSLQPEDFATYYCVHYAQFPYTFGQGTKVEIK | 0.00108
* 3C8.gr.7 (antibody, V domains shown, human Fc) VH: EVQLVQSGAEVKKPGASVKVSCKASGYAFTNYLIEWVRQAPGQGLEWIGVINPGSGDTYYSEKFKGRVTLTADTSTSTAYLELSSLRSEDTAVYYCARDRLDYWGQGTLVTVSS VL: DIQMTQSPSSLSASVGDRVTITCHASQDISSYIVWYQQKPGKSFKGLIYHGTNLEDGVPSRFSGSGSGADYTLTISSLQPEDFATYYCVHYAQFPYTFGQGTKVEIK | 0.000685
